tested-on: T1, human BDCA2 ectodomain (Homo sapiens, UniProt Q8WTT0)
T1 construct: huBDCA2 ectodomain: residues 257-425 above (underlined); murine IgG2a Fc (with G4S linker) (N, cleaved yes); made in house
T1 sequence (Q8WTT0 45-213): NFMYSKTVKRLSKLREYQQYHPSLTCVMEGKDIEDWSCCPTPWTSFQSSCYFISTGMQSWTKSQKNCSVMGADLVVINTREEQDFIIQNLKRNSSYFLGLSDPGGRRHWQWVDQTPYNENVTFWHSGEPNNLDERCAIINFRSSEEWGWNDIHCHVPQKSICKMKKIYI
method-summary: Octet binding of mAbs on anti-human Fc tips to monomeric huBDCA2
run-parameters: Example 5, conditioned medium, hu24F4 variants
readout: kon (M⁻¹ s⁻¹)
Lab book: enter the figure in M⁻¹ s⁻¹, no units written.

Some entries whose results are on file:
molecule="H3/L1: hu24F4 variant, heavy chain version H3 (SEQ ID NO: 46), light chain version L1 (antibody, V domains shown) VH: EVQLVESGGGLVKPGGSLRLSCAASGFTFSTYTMSWVRQAPGKGLEWVSTISPGDSFGYYYPDSVQGRFTISRDNAKNSLYLQMNSLRAEDTAVYYCARDIYYNYGAWFAYWGQGTLVTVSS VL: DIQLTQSPSSLSASVGDRVTITCKASQSVDYDGDSYMNWYQQKPGKAPKLLIYAASTLESGVPSRFSGSGSGTDFTLTISSLQPEDFATYYCQQSNEDPRTFGQGTKVEIK" obs_value=452000
molecule="H6/L0: hu24F4 variant, heavy chain version H6 (SEQ ID NO: 52), light chain version L0 (SEQ ID NO: 54) (antibody, V domains shown) VH: DVQLVESGGGLVKPGGSLRLSCAASGFTFSTYTMSWVRQAPGKGLEWVATISGGNNYGYSYPDSVKGRFTISRDNAKNSLYLQMNSLRAEDTAVYYCTRDIYYNYGAWFAYWGQGTLVTVSS VL: AIQLTQSPSSLSASVGDRVTITCKASQSVDYDGDSYMNWYQQKPGKAPKLLIYAASTLESGVPSRFSGSGSGTDFTLTISSLQPEDFATYYCQQSNEDPRTFGQGTKVEIK" obs_value=273000
molecule="H2/L1: hu24F4 variant, heavy chain version H2 (SEQ ID NO: 44), light chain version L1 (antibody, V domains shown) VH: EVQLVESGGGLVKPGGSLRLSCAASGFTFSTYTMSWVRQAPGKGLEWVSTISPGDSSTIYYADSVKGRFTISRDNAKNSLYLQMNSLRAEDTAVYYCARDIYYNYGAWFAYWGQGTLVTVSS VL: DIQLTQSPSSLSASVGDRVTITCKASQSVDYDGDSYMNWYQQKPGKAPKLLIYAASTLESGVPSRFSGSGSGTDFTLTISSLQPEDFATYYCQQSNEDPRTFGQGTKVEIK" obs_value=100000

IN: Quick check: kon of H0/L1: hu24F4 variant, heavy chain version H0 (SEQ ID NO: 40), light chain version L1 (SEQ ID NO: 56) (antibody, V domains shown) VH: EVQLVESGGGLVKPGGSLRLSCAASGFTFSTYTMSWVRQAPGKGLEWVSAISGSGGSTYYADSVKGRFTISRDNAKNSLYLQMNSLRAEDTAVYYCARDIYYNYGAWFAYWGQGTLVTVSS VL: DIQLTQSPSSLSASVGDRVTITCKASQSVDYDGDSYMNWYQQKPGKAPKLLIYAASTLESGVPSRFSGSGSGTDFTLTISSLQPEDFATYYCQQSNEDPRTFGQGTKVEIK ?
OUT: 100000

IN: What do we get for H1/L1: hu24F4 variant, heavy chain version H1 (SEQ ID NO: 42), light chain version L1 (antibody, V domains shown) VH: EVQLVESGGGLVKPGGSLRLSCAASGFTFSTYTMSWVRQAPGKGLEWVSTISPGDSFGYYPDSVKGRFTISRDNAKNSLYLQMNSLRAEDTAVYYCARDIYYNYGAWFAYWGQGTLVTVSS VL: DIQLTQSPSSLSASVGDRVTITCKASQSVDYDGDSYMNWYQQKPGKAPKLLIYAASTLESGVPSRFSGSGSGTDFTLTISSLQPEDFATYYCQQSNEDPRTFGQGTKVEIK ?
OUT: 100000

Values from patent US20250304700A1
